Values were extracted from patent US20170022281A1.

TESTED TARGET: T1, human PRLR (Biacore antigen) (human, UniProt P16471 25-234, limits assumed)
T1 construct: The construct injected over captured antibody is not described (a soluble form is likely); also called huPRLR
T1 sequence: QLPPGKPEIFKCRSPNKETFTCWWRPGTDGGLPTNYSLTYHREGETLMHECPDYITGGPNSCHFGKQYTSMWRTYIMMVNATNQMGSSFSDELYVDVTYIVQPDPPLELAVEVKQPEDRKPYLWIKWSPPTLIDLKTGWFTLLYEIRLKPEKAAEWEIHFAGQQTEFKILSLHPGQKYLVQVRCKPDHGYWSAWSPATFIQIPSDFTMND
ASSAY PROTOCOL: SPR simultaneous binding; PRLR held by surface mAb Ab21
Protocol: Running buffer was HBS-EP+ (10 mM Hepes, pH7.4, 150 mM NaCl, 3 mM EDTA, 0.05% surfactant). Assay was performed at 12° C. using Biacore T200 and CM5 sensor chips with anti-human IgG (Pierce) amine-coupled in all 4 flow cells to ˜2000 RU. Separate test mAbs were captured in flowcells 2, 3 & 4 (flowcell 1 was reference, no test mAb). All 4 flowcells were then blocked by injection with isotype control mAb at 50 ug/ml. […]
MEASURE: solution mAb binding, % of PRLR binding (%)

* chAb8 (antibody, human IgG1, kappa, V domains shown, chimeric, murine variable and human G1/kappa constant regions) VH: EVQLQQSGPELVKPGASVKISCKASGYTFTDYNIHWVKQSHGKSLEWIGYIYPNNDGTGYNQKFKSKATLTVDNSSSTAYMEVRSLTSEDSAVYYCARGDGNYVGDMDYWGQGTSVTVSS VL: DIQMTQSPASLSASVGETVTITCRASENIYSYLAWYQQKQGKPPQLLVYNAKTLAEGVPSRFSGGGSGTQFSLKINSLQPEDFGSYYCQHHYATPFTFGSGTKLEIKT | -1
* Ab49 (antibody, human IgG1, kappa, V domains shown, humanized from Ab8; G1; also called Ab3 HC.1a and Ab3 LC.1b) VH: EVQLVQSGAEVKKPGASVKVSCKASGYTFTDYNIHWVRQAPGQGLEWIGYIYPNNDGTGYNQKFKSRATLTVDNSTSTAYMELRSLRSDDTAVYYCARGDGNYVGDMDYWGQGTTVTVSS VL: DIQMTQSPSSLSASVGDRVTITCRASENIYSYLAWYQQKPGKAPKLLVYNAKTLAEGVPSRFSGSGSGTDFTLTISSLQPEDFATYYCQHHYATPFTFGQGTKLEIKR | -1
* Ab30 (antibody, human IgG1, kappa, V domains shown, humanized from Ab5; G1; also called Ab2 HC.1a and Ab2 LC.1a) VH: EVQLVQSGAEVKKPGSSVKVSCKASGYTFTSFWMHWVRQAPGQGLEWIGVIDPSDTYTNYNQKFKGRATLTVDESSSTAYMELSSLRSEDTAVYYCARGDYSNWFTYWGQGTLVTVSS VL: DVVMTQTPLSLSVTPGQPASISCRSSQRLVHSNGNTYLHWYLQKPGQSPQLLIYKVSNRFSGVPDRFSGSGSGTDFTLKISRVEAEDVGVYFCSQSTHVPWTFGGGTKVEIKR | -1
